# System: zebrafish embryos
# conditionInfo: 5 µM, exposure through 120 hpf
endpointLabel: Mortality (%)
Provide the reading as a plain figure in %.

Measured Mortality (%) of N.O=C(O)C(F)(F)C(F)(F)C(F)(F)C(F)(F)C(F)(F)C(F)(F)C(F)(F)F [compound 21, Ammonium perfluorooctanoate] : 0

Measured Mortality (%) of NC(=O)C(F)(F)C(F)(F)C(F)(F)F [compound 31, Heptafluorobutyramide] : 2.2

Measured Mortality (%) of OCC(F)(F)C(F)(F)C(F)(F)CO : 0

Measured Mortality (%) of O=C(O)C(F)(F)C(F)(F)C(F)(F)C(F)(F)C(F)(F)C(F)(F)C(F)(F)C(F)(F)F : 1.1

Measured Mortality (%) of C=CC(F)(F)C(F)(F)C(F)(F)C(F)(F)F : 4.4

Measured Mortality (%) of O=C(O)C=CC(F)(C(F)(F)F)C(F)(F)F : 4.4
